# credit: PubChem BioAssay (NCATS)

# experiment_description: qHTS of pediatric cancer cell lines to identify multiple opportunities for drug repurposing: Confirmatory screen for NB1643 cells (AID 1347109); also: nearly all actives have a fitted effect of over 45% in size
# particulars: NB1643 neuroblastoma cell viability; series mostly up to 45.9 µM
Results filed as inconclusive are left out. Calls of active or inactive are those of the source. Calls follow the shape of the dose curve; as a rule, active = well fitted cell-killing curve with a large enough effect; inconclusive = small, poorly fitted or top-dose-only effect, or effect the other way; inactive = no such curve, though single readings can be large or run the other way. Non-standard residues stand in square brackets, D forms with d. Residues, ends and D or L forms follow the SMILES beside them. *: point of attachment. Sta = CC(C)C[C@H](N)[C@@H](O)CC(=O)O; Isovaleryl = CC(C)CC(=O)*
Allowed answers: active, inactive

For orientation, consider the following solved cases.
compound	cat
O=C(CCc1ccc(O)cc1)c1c(O)cc(O)cc1O	inactive
CC(S)C(=O)NCC(=O)O (stereo not drawn)	inactive
Nc1nc(Cl)nc2c1ncn2[C@H]1C[C@H](O)[C@@H](CO)O1	active
Oc1ccc(-c2nc(-c3ccc(F)cc3)c(-c3ccncc3)[nH]2)cc1	active
Nc1ncn([C@H]2C[C@H](O)[C@@H](CO)O2)c(=O)n1	inactive
CC(C)CC(=O)N[C@H](C(=O)N[C@H](C(=O)N[C@@H](CC(C)C)[C@@H](O)CC(=O)N[C@@H](C)C(=O)N[C@@H](CC(C)C)[C@@H](O)CC(=O)O)C(C)C)C(C)C (Isovaleryl-VV[Sta]A[Sta]-OH)	active
C=C(c1ccc(C(=O)O)cc1)c1cc2c(cc1C)C(C)(C)CCC2(C)C	inactive
CCCCc1ccc2nc(NC(=O)OC)[nH]c2c1	active

Query: What classification did `COc1cc(C(C)=O)ccc1OCCCN1CCC(c2noc3cc(F)ccc23)CC1` end up with in this test?
Response: inactive

Query: What classification did `CN(C)c1ccc(O)c2c1C[C@H]1C[C@H]3[C@H](N(C)C)C(=O)C(C(N)=O)=C(O)[C@@]3(O)C(=O)C1=C2O` end up with in this test?
Response: inactive

Query: What classification did `Cc1ccc(NC(=O)c2ccc(CN3CCN(C)CC3)cc2)cc1Nc1nccc(-c2cccnc2)n1` end up with in this test?
Response: inactive

Query: What classification did Nc1ccn([C@@H]2O[C@H](CO)[C@@H](O)C2O)c(=O)n1 (stereo partly drawn) end up with in this test?
Response: inactive

Query: What classification did `CCN(CC)CCOc1ccc(Nc2ncc3cc(-c4c(Cl)cccc4Cl)c(=O)n(C)c3n2)cc1` end up with in this test?
Response: active
